Test system: Escherichia coli
Protocol summary: Antibacterial activity against Escherichia coli after 24 hrs by twofold serial dilution method
Assay type: functional
Measured metric: MIC (µg/mL)
State the answer as a number, implicitly in µg/mL.

Worked set:
Compound	Target system	MIC (µg/mL)
CC1C(=O)C(C)C(c2ccc(Cl)cc2)N(C(=O)CN2CCOCC2)C1c1ccc(Cl)cc1 (centres undefined)	Escherichia coli	25
CCC1C(=O)CC(c2ccccc2)N(C(=O)CN2CCOCC2)C1c1ccccc1 (centres undefined)	Escherichia coli	50
COc1ccc(C2CC(=O)C(C)C(c3ccc(OC)cc3)N2C(=O)CN2CCOCC2)cc1 (centres undefined)	Escherichia coli	100
COc1ccc(C2C(C)C(=O)C(C)C(c3ccc(OC)cc3)N2C(=O)CN2CCOCC2)cc1 (centres undefined)	Escherichia coli	12.5
CC(C)C1C(=O)CC(c2ccccc2)N(C(=O)CN2CCOCC2)C1c1ccccc1 (centres undefined)	Escherichia coli	100
Cc1ccc(C2C(C)C(=O)C(C)C(c3ccc(C)cc3)N2C(=O)CN2CCOCC2)cc1 (centres undefined)	Escherichia coli	25
O=C(O)c1cn(C2CC2)c2cc(N3CCNCC3)c(F)cc2c1=O	Escherichia coli	25
CC1C(=O)CC(c2ccccc2)N(C(=O)CN2CCOCC2)C1c1ccccc1 (centres undefined)	Escherichia coli	100

Proceed to the following item.
What value of MIC on Escherichia coli does CC1C(=O)C(C)C(c2ccccc2)N(C(=O)CN2CCOCC2)C1c1ccccc1 (centres undefined) have? 100

---

Tested on: Pseudomonas aeruginosa
Protocol summary: Antibacterial activity against Pseudomonas aeruginosa after 24 hrs by twofold serial dilution method
Type: functional
Measured metric: MIC (µg/mL)
// note: answer is a bare numeric in µg/mL

Compound	Target system	Obs value
CC1C(=O)CC(c2ccccc2)N(C(=O)CN2CCOCC2)C1c1ccccc1 (centres undefined)	Pseudomonas aeruginosa	50

# returns recorded MIC (system: Pseudomonas aeruginosa) for CCC1C(=O)CC(c2ccccc2)N(C(=O)CN2CCOCC2)C1c1ccccc1 (centres undefined) 25

Look up MIC with Pseudomonas aeruginosa for this compound: Cc1ccc(C2C(C)C(=O)C(C)C(c3ccc(C)cc3)N2C(=O)CN2CCOCC2)cc1 (centres undefined) 6.25

Request body: readout MIC, system Pseudomonas aeruginosa, query CC(C)C1C(=O)CC(c2ccccc2)N(C(=O)CN2CCOCC2)C1c1ccccc1 (centres undefined) . Return the value. 50

---

Recorded measurements of log10(MIC), one per entry
Tested on: Staphylococcus aureus
Protocol summary: Antibacterial activity against Staphylococcus aureus after 24 hrs by twofold serial dilution method
Format: functional
Reminder: these figures are log10 of reported MIC, in µg/mL before transformation.

Illustrative cases are given below, each with its answer.
Compound	log10(MIC)
CC(C)C1C(=O)CC(c2ccccc2)N(C(=O)CN2CCOCC2)C1c1ccccc1 (centres undefined)	2.00
CC1C(=O)C(C)C(c2ccccc2)N(C(=O)CN2CCOCC2)C1c1ccccc1 (centres undefined)	1.70
CCC1C(=O)CC(c2ccccc2)N(C(=O)CN2CCOCC2)C1c1ccccc1 (centres undefined)	1.70
COc1ccc(C2C(C)C(=O)C(C)C(c3ccc(OC)cc3)N2C(=O)CN2CCOCC2)cc1 (centres undefined)	0.80

So what's the measured log10(MIC) for this one? CC1C(=O)CC(c2ccccc2)N(C(=O)CN2CCOCC2)C1c1ccccc1 (centres undefined) 2.30

If you can, please state the reported log10(MIC) value of CC1C(=O)C(C)C(c2ccc(Cl)cc2)N(C(=O)CN2CCOCC2)C1c1ccc(Cl)cc1 (centres undefined) . 1.40

---

System: Pseudomonas aeruginosa
Protocol summary: Antibacterial activity against Pseudomonas aeruginosa after 24 hrs by twofold serial dilution method
Type: functional
Catalogue of MIC readings, one per entry.
Output spec: scalar in µg/mL, unitless text.

Compound	Target system	MIC / µg/mL
COc1ccc(C2CC(=O)C(C)C(c3ccc(OC)cc3)N2C(=O)CN2CCOCC2)cc1 (stereo not given)	Pseudomonas aeruginosa	25
CC1C(=O)C(C)C(c2ccc(Cl)cc2)N(C(=O)CN2CCOCC2)C1c1ccc(Cl)cc1 (stereo not given)	Pseudomonas aeruginosa	50
CC1C(=O)C(C)C(c2ccccc2)N(C(=O)CN2CCOCC2)C1c1ccccc1 (stereo not given)	Pseudomonas aeruginosa	25
COc1ccc(C2C(C)C(=O)C(C)C(c3ccc(OC)cc3)N2C(=O)CN2CCOCC2)cc1 (stereo not given)	Pseudomonas aeruginosa	12.5

Now examine the next entry.
Tell me reported MIC for O=C1CC(c2ccccc2)N(C(=O)CN2CCOCC2)C(c2ccccc2)C1 (stereo not given) , tested with Pseudomonas aeruginosa. 100

---

System: Staphylococcus aureus
Protocol summary: Antibacterial activity against Staphylococcus aureus after 24 hrs by twofold serial dilution method
Format: functional
Reported MIC by item:
// note: answer is a bare numeric in µg/mL

Molecule	Unit of measure	MIC
Cc1ccc(C2C(C)C(=O)C(C)C(c3ccc(C)cc3)N2C(=O)CN2CCOCC2)cc1 (stereo not drawn)	µg/mL	50
O=C1CC(c2ccccc2)N(C(=O)CN2CCOCC2)C(c2ccccc2)C1 (stereo not drawn)	µg/mL	200

Attention now shifts to the item below.
Quick one: MIC for COc1ccc(C2CC(=O)C(C)C(c3ccc(OC)cc3)N2C(=O)CN2CCOCC2)cc1 (stereo not drawn) ? 50
